# Test system: MRSA 43300
# Experimental details: Antibacterial activity, NCCLS dilution method (Table 9)
# Format: cell-based, S. aureus
# Assay context: Staphylococcus aureus, MRSA, MRSA 43300; dilution method; labels marked a tested as a mixture of diastereomers; read-out: MRSA 43300 MIC
Property: MIC; scope: individual compounds

- Compound: "CO[C@@H]1[C@@H](O)[C@@H](OC)C(NC2=CC(=O)c3c(cc4c(c3O)C(=O)[C@]3(OC)[C@H](O)Cc5cc(C)c(C(=O)NCc6ccc(Cl)cc6)c(O)c5[C@]3(O)C4=O)C2=O)O[C@H]1C (mixture of isomers) [Example 27]"
  MIC / µg/mL: 8
- Compound: "CO/N=C1/[C@@H](OC)[C@H](C)O[C@H](NC2=CC(=O)c3c(cc4c(c3O)C(=O)[C@]3(OC)[C@H](O)Cc5cc(C)c(C(=O)OC)c(O)c5[C@]3(O)C4=O)C2=O)[C@@H]1OC [Example 50]"
  MIC / µg/mL: 0.25
- Compound: "COC(=O)c1c(C)cc2c(c1OCC(N)=O)[C@]1(O)C(=O)c3cc4c(c(O)c3C(=O)[C@]1(OC)[C@H](O)C2)C(=O)C=C(NC1O[C@@H](C)[C@H](OC)[C@@H](O)[C@H]1OC)C4=O (some centres unmarked) [Example 10]"
  MIC / µg/mL: 32

----------
This section presents compounds with their documented MIC values.
# Test system: MRSA 43300
# Experimental details: Antibacterial activity, NCCLS dilution method (Table 9)
# Format: cell-based, S. aureus
# Assay context: Staphylococcus aureus, MRSA, MRSA 43300; dilution method; labels marked a tested as a mixture of diastereomers; read-out: MRSA 43300 MIC
# From the text: NCCLS standards for antimicrobial susceptibility testing using the dilution method were followed. See: Performance Standards for Antimicrobial Susceptibility Testing; Fourteenth Informational Supplement. NCCLS Document M100-S14 (ISBN 1-56238-516-X), 2004. NCCLS, 940 West Valley Road, Suite 1400, Wayne, Pa. 19087-1898 USA, 2004; Methods for Dilution Antimicrobial Susceptibility Tests for Bacteria that Grow Aerobically; Approved Standard—Sixth Edition. […]

- Compound: "COC(=O)c1c(C)cc2c(c1O)[C@]1(O)C(=O)c3cc4c(c(O)c3C(=O)[C@]1(OC)[C@H](O)C2)C(=O)C=C(N[C@H]1O[C@@H](C)[C@H](OC)[C@@H](O)[C@H]1OC)C4=O"
  Study target: "MRSA 43300"
  MIC, µg/mL: 0.008
- Compound: "CCOC(=O)CCC1(O)C(N[C@H]2O[C@@H](C)[C@H](OC)[C@@H](O)[C@H]2OC)=CC(=N)c2c1cc1c(c2O)C(=O)[C@]2(OC)[C@H](O)Cc3cc(C)c(C(=O)OC)c(O)c3[C@]2(O)C1=O (stereo partly drawn)"
  Study target: "MRSA 43300"
  MIC, µg/mL: 32
- Compound: "COC(=O)c1c(C)cc2c(c1O)[C@]1(O)C(=O)c3cc4c(c(O)c3C(=O)[C@]1(OC)[C@H](O)C2)C(=O)C=C(N[C@H]1O[C@@H](C)[C@H](OC)[C@@H](O[C@@H]2O[C@H](CO)[C@@H](O)[C@H](O)[C@H]2O)[C@H]1OC)C4=O"
  Study target: "MRSA 43300"
  MIC, µg/mL: 2
- Compound: "CO[C@@H]1[C@@H](O)[C@@H](OC)C(NC2=CC(=O)c3c(cc4c(c3O)C(=O)[C@]3(OC)[C@H](O)Cc5cc(C)c(C(=O)N6CCCC6)c(O)c5[C@]3(O)C4=O)C2=O)O[C@H]1C (mixture of isomers)"
  Study target: "MRSA 43300"
  MIC, µg/mL: 1
- Compound: "CO[C@@H]1[C@@H](O)[C@@H](OC)C(NC2=CC(=O)c3c(cc4c(c3O)C(=O)[C@]3(OC)[C@H](O)Cc5cc(C)c(C(=O)NC(C)C)c(O)c5[C@]3(O)C4=O)C2=O)O[C@H]1C (mixture of isomers)"
  Study target: "MRSA 43300"
  MIC, µg/mL: 2
- Compound: "COC(=O)c1c(C)cc2c(c1OCC(=O)O)[C@]1(O)C(=O)c3cc4c(c(O)c3C(=O)[C@]1(OC)[C@H](O)C2)C(=O)C=C(NC1O[C@@H](C)[C@H](OC)[C@@H](O)[C@H]1OC)C4=O (stereo partly drawn)"
  Study target: "MRSA 43300"
  MIC, µg/mL: 32
- Compound: "COC(=O)c1c(C)cc2c(c1OCc1ccccc1)[C@]1(O)C(=O)c3cc4c(c(O)c3C(=O)[C@]1(OC)[C@H](O)C2)C(=O)C=C(N[C@H]1O[C@@H](C)[C@H](OC)[C@@H](O)[C@H]1OC)C4=O"
  Study target: "MRSA 43300"
  MIC, µg/mL: 0.12

----------
# Test system: MRSA 43300
# Experimental details: Antibacterial activity, NCCLS dilution method (Table 9)
# Assay type: cell-based, S. aureus
# Assay context: Staphylococcus aureus, MRSA, MRSA 43300; dilution method; labels marked a tested as a mixture of diastereomers; read-out: MRSA 43300 MIC
Measurement kind: MIC (µg/mL)

- Compound: "COC(=O)c1c(C)cc2c(c1O)[C@]1(O)C(=O)c3cc4c(c(O)c3C(=O)[C@]1(OC)[C@H](O)C2)/C(=N/CCCO)C=C(N[C@H]1O[C@@H](C)[C@H](OC)[C@@H](O)[C@H]1OC)C4=O"
  Measurement kind: "MIC"
  Recorded result: 1
- Compound: "CNC(=O)c1c(C)cc2c(c1O)[C@]1(O)C(=O)c3cc4c(c(O)c3C(=O)[C@]1(OC)[C@H](O)C2)C(=O)C=C(NC1O[C@@H](C)[C@H](OC)[C@@H](O)[C@H]1OC)C4=O (mixture of isomers)"
  Measurement kind: "MIC"
  Recorded result: 2
- Compound: "COC(=O)c1c(C)cc2c(c1O)[C@]1(O)C(=O)c3cc4c(c(O)c3C(=O)[C@]1(OC)[C@H](O)C2)C(=O)C=C(N[C@H]1O[C@@H](C)[C@H](OC)[C@@H](O)[C@H]1OC)C4(O)c1ccccc1 (single isomer, unassigned)"
  Measurement kind: "MIC"
  Recorded result: 8
- Compound: "COc1ccc(CNC(=O)c2c(C)cc3c(c2O)[C@]2(O)C(=O)c4cc5c(c(O)c4C(=O)[C@]2(OC)[C@H](O)C3)C(=O)C=C(N[C@H]2O[C@@H](C)[C@H](OC)[C@@H](O)[C@H]2OC)C5=O)cc1"
  Measurement kind: "MIC"
  Recorded result: 0.5
- Compound: "COC(=O)c1c(C)cc2c(c1OC)[C@]1(O)C(=O)c3cc4c(c(OC)c3C(=O)[C@]1(OC)[C@H](O)C2)C(=O)C=C(NC1O[C@@H](C)[C@H](OC)[C@@H](O)[C@H]1OC)C4=O (mixture of isomers)"
  Measurement kind: "MIC"
  Recorded result: 2
- Compound: "COC(=O)c1c(C)cc2c(c1O)[C@]1(O)C(=O)c3cc4c(c(O)c3C(=O)[C@]1(OC)/C(=N/O)C2)C(=O)C=C(N[C@H]1O[C@@H](C)[C@H](OC)/C(=N/O)[C@H]1OC)C4=O"
  Measurement kind: "MIC"
  Recorded result: 0.12

----------
# Tested on: MRSA 43300
# Experimental details: Antibacterial activity, NCCLS dilution method (Table 9)
# Format: cell-based, S. aureus
# Assay context: Staphylococcus aureus, MRSA, MRSA 43300; dilution method; labels marked a tested as a mixture of diastereomers; read-out: MRSA 43300 MIC
Overview of recorded MIC for various compounds

- Compound: "COC(=O)c1c(C)cc2c(c1O)[C@]1(O)C(=O)c3cc4c(c(O)c3C(=O)[C@]1(OC)[C@H](O)C2)C(=O)C=C(N[C@H]1O[C@@H](C)[C@H](OC)[C@@H](O)[C@H]1OC)C4(C)O (single isomer, unassigned)"
  MIC (µg/mL): 32
- Compound: "CO[C@@H]1[C@@H](O)[C@@H](OC)[C@@H](NC2=CC(=O)c3c(cc4c(c3O)C(=O)[C@]3(OC)[C@H](O)Cc5cc(C)c(C(=O)O)c(O)c5[C@]3(O)C4=O)C2=O)O[C@H]1C"
  MIC (µg/mL): 32
- Compound: "CO[C@@H]1[C@@H](O)[C@@H](OC)[C@@H](NC2=CC(=O)c3c(cc4c(c3O)C(=O)[C@]3(OC)[C@H](O)Cc5cc(C)c(C(N)=O)c(O)c5[C@]3(O)C4=O)C2=O)O[C@H]1C"
  MIC (µg/mL): 2
- Compound: "CO[C@@H]1[C@@H](O)[C@@H](OC)[C@@H](NC2=CC(=O)c3c(cc4c(c3O)C(=O)[C@]3(OC)[C@H](O)Cc5cc(C)c(C(=O)OCC(C)C)c(O)c5[C@]3(O)C4=O)C2=O)O[C@H]1C"
  MIC (µg/mL): 0.12
